Origin of measurements: paper PMC8930183

# system under test: T1, Pf12 D2 (residues E174-S304) (Plasmodium falciparum, UniProt C6KSX0)
# T1 construct: Pf12, Plasmodium falciparum, C-terminal 6-cys domain D2, residues E174-S304; also called Pf12 D2 domain; source: Spodoptera frugiperda 21 cells, purified by the same protocol as Pf12 D1D2; not shown: His8, N-terminal, cleaved
# T1 sequence (C6KSX0 174-304): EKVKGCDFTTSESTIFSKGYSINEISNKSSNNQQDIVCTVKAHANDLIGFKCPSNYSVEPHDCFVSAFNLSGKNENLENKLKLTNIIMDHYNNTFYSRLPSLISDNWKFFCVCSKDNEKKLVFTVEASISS
# method description: BLI; Octet RED96e; nanobodies loaded on NTA sensors; untagged Pf12 or Pf41 (6-200 nM) or their domains in solution; PBS pH 7.4, 0.1% BSA, 0.05% TWEEN-20, 25°C; global 1:1 fit
# test parameters: both partners purified
result type: binding result

1. nanobody A11 (VHH, alpaca, immunised with Pf12-Pf41 complex; Pf12-specific; source: E. coli WK6, periplasmic extract, purified (HisTrap, SEC)) VHH: QVQLQESGGGLVQPGGSLRLSCAASGFTFDDYAIGWFRQAPGKEREGVSCIMSSDGSAYYADSVKGRFTISRDNAKNTVYLQMNSLRPEDTANYYCATDKIVCSTGFIVDYGMHYGGKGTQVTVSS
binds
2. nanobody A3 (VHH, alpaca, immunised with Pf12-Pf41 complex; Pf12-specific; source: E. coli WK6, periplasmic extract, purified (HisTrap, SEC)) VHH: QVQLQESGGGLVQAGGSLRLSCAASGRTFSNYAMGWFRQAPGKEREFVAAITWSGDSTYYGDSVKGRFTISRDNAKSTAYLQMNSLKPEDTAVYYCAADEAVVTTTLQWDYWGQGTQVTVSS
binds
3. nanobody H11 (VHH, alpaca, immunised with Pf12-Pf41 complex; Pf12-specific; source: E. coli WK6, periplasmic extract, purified (HisTrap, SEC)) VHH: QVQLQESGGGLVQPGGSLRLSCAGSGFTLDHYAIGWFRQAPGKEREGVSCIISSDSSTYYTDSVKGRFTISRDNAKNTVYLQMNSLKPEDTAVYYCATEKIVCASGFIVDYGMDYCGKGTQVTVSS
binds
